The following compounds are listed with their measured pIC50 values.
Target: Keap1/Nrf2 (Homo sapiens, UniProt Q14145)
Sequence (Q16236 whole entry): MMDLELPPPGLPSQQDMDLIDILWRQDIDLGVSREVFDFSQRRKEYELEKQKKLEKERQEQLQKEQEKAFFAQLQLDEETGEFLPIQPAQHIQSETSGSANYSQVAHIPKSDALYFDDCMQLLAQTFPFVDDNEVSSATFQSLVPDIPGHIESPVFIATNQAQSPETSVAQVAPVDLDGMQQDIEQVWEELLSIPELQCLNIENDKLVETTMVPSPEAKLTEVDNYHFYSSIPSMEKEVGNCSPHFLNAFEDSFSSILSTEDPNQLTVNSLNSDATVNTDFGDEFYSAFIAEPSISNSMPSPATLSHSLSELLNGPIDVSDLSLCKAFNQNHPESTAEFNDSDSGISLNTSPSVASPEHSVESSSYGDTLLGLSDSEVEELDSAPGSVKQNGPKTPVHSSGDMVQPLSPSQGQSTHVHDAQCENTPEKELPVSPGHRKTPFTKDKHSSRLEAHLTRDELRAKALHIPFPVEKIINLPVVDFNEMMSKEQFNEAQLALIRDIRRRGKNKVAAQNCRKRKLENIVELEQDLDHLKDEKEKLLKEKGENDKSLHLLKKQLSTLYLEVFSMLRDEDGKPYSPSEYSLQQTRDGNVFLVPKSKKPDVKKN
Sequence (Q14145 whole entry): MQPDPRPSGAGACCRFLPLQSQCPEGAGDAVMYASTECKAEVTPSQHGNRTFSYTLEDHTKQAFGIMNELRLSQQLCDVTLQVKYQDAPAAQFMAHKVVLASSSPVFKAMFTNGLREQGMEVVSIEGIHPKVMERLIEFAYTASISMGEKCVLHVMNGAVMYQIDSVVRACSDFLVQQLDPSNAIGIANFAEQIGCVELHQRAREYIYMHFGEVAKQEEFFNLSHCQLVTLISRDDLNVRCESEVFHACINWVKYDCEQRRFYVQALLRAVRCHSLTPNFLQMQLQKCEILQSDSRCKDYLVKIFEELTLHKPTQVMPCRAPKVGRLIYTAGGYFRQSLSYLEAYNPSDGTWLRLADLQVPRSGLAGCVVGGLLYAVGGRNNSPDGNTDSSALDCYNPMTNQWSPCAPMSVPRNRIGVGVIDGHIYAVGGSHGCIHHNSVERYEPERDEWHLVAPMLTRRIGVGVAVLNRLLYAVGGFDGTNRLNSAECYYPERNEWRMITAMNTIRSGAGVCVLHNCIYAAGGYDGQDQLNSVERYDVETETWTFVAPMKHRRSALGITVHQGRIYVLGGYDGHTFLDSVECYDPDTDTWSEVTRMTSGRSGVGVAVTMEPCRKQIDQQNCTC
Assay: Inhibition of Keap1-Nrf2 protein-protein interaction (unknown origin) incubated for 34 mins by fluorescence polarization assay
pIC50: −log10 of the molar value.

- chemical_string: "COc1ccc(S(=O)(=O)N(CC(=O)O)c2cc(CCC(=O)NC(C)C)c(N(CC(=O)O)S(=O)(=O)c3ccc(OC)cc3)c3ccccc23)cc1"
  pIC50: 6.99
- chemical_string: "COc1ccc(S(=O)(=O)N(CC(=O)O)c2cc(CCCN3C(=O)c4ccccc4C3=O)c(N(CC(=O)O)S(=O)(=O)c3ccc(OC)cc3)c3ccccc23)cc1"
  pIC50: 7.11
- chemical_string: "COc1ccc(S(=O)(=O)N(CC(=O)O)c2cc(Sc3ccccc3)c(N(CC(=O)O)S(=O)(=O)c3ccc(OC)cc3)c3ccccc23)cc1"
  pIC50: 7.07
- chemical_string: "COc1ccc(S(=O)(=O)N(CC(=O)O)c2cc(-c3ccc(C#N)cc3)c(N(CC(=O)O)S(=O)(=O)c3ccc(OC)cc3)c3ccccc23)cc1"
  pIC50: 6.93
- chemical_string: "COc1ccc(S(=O)(=O)N(CC(=O)O)c2cc(-c3ccc(N4C(=O)c5ccccc5C4=O)cc3)c(N(CC(=O)O)S(=O)(=O)c3ccc(OC)cc3)c3ccccc23)cc1"
  pIC50: 7.05
- chemical_string: "COc1ccc(-c2cc(N(CC(=O)O)S(=O)(=O)c3ccc(OC)cc3)c3ccccc3c2N(CC(=O)O)S(=O)(=O)c2ccc(OC)cc2)cc1"
  pIC50: 7.07
